assayed target: human ether-à-go-go-related gene (hERG) potassium channel (human);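 further: peak tail current of the secondary pulse compared with the same well before compound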
Sequence (Q12809 whole entry, looked up): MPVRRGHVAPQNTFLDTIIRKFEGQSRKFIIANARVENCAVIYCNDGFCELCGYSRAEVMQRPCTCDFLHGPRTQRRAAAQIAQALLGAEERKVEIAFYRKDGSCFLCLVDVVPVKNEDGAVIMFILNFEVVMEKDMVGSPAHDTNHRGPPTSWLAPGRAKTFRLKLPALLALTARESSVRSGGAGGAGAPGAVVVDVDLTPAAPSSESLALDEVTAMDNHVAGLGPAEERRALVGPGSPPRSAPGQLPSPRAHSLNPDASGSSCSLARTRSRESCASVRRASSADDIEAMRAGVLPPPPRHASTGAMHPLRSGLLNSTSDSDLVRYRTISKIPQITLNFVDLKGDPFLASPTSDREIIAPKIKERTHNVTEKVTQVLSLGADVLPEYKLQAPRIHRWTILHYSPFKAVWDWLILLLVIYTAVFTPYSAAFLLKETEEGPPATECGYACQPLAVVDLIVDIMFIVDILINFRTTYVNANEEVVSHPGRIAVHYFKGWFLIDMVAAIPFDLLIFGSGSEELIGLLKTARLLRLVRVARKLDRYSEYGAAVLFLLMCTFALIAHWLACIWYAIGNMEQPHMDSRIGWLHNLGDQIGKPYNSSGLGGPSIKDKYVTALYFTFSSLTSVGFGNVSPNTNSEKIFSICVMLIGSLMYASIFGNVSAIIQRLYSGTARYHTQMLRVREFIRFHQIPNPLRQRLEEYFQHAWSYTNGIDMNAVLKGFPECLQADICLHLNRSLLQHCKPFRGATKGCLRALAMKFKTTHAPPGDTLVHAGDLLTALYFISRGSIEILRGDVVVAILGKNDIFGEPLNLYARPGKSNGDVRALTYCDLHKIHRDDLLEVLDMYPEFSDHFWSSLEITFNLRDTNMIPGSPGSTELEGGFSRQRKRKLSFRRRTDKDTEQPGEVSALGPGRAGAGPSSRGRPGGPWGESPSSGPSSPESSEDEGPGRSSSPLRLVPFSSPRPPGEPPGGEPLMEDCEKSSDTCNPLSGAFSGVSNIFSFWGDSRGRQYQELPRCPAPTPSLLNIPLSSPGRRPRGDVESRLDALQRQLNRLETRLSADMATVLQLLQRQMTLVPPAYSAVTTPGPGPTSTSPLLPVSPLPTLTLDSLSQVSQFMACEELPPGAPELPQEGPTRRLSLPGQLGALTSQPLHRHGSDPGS
assay text: primary screen, population patch clamp on CHO cells stably expressing hERG; higher = less effect of the substance
In all, about 310,000 compounds went through this assay and about 14,000 (4.5%) showed an effect of 50% or more. Effects have a minus sign here. The entries come from a sample that favours strong results as a whole.
Catalogue of compounds with associated hERG current change (%, negative = inhibition) at 10uM
Write the answer as a number in %, unit excluded.

Completed entries (count: 3):
entry smiles	observed measurement
O=C(NCCCN1CCCC1=O)c1cccc(C(F)(F)F)c1	-3
COc1ccc(/C=C/C2=CCN(C)CC2)cc1.Cl	-19.7
Clc1ccc(-c2ccc(/C=N/Nc3nncc(-c4ccccc4)n3)o2)cc1	20.8

# context switch: different compound, same hERG current change (%, negative = inhibition) at 10uM
Answer with the recorded hERG current change (%, negative = inhibition) at 10uM for the compound listed here: CCSc1nnc2c(n1)OC1(CCCC1)Nc1ccccc1-2
2.61
